Attribution: patent US11306095B2

# Run description: Determination of solubility in water (PBS 20 mM, pH 6.8)
# Type: physicochemical
# Test context: PBS buffer, aqueous buffer, thermodynamic from solid; 20 mM phosphate buffer, pH 6.8; read-out: solubility in water
Metric: solubility

Data request: Dear colleague, I am looking for the recorded solubility of the following compound: C=CC(=O)Nc1cccc(-n2c(=O)cnc3cnc(Nc4ccc(N5CCN(C)CC5)c(OC)c4)nc32)c1 [Compound 4]
Data returned: 1.37 mg/mL

----------
Give measured IC50 for each item. Keep answers brief.
# Assayed system: Wild type EGFR (Homo sapiens, UniProt P00533)
# Construct: purchased Invitrogen PV3872
# Sequence (P00533 25-1210): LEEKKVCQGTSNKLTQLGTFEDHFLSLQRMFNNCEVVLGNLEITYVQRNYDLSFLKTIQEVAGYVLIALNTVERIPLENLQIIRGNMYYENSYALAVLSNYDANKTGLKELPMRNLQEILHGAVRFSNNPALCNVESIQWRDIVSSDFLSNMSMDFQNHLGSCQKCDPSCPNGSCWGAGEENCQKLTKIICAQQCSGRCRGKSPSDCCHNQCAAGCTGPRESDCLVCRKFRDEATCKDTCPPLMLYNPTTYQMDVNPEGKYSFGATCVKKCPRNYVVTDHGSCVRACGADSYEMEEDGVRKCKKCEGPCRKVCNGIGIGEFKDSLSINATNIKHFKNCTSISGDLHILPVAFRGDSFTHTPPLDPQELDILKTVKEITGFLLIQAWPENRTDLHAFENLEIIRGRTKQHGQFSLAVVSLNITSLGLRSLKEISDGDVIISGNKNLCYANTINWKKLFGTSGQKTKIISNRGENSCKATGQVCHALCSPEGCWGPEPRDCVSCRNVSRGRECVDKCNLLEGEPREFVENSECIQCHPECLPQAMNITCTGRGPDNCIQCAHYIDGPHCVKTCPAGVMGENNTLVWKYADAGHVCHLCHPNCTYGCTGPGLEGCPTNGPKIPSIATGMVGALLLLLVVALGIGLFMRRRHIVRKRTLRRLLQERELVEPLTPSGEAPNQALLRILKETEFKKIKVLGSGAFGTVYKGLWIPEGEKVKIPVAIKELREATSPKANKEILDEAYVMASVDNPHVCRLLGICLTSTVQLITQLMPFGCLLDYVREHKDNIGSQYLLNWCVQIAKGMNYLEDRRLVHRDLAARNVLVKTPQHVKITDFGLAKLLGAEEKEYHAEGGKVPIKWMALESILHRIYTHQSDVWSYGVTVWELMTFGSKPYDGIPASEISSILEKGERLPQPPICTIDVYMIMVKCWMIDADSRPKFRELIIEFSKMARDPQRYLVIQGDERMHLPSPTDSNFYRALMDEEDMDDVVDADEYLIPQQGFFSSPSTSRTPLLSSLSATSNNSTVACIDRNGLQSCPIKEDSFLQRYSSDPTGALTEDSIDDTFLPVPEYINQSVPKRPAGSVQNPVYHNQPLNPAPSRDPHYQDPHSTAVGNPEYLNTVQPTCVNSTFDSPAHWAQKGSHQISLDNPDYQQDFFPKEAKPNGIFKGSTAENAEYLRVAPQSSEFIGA
# Run description: Kinase activity test (FRET), wild type EGFR
# Format: biochemical
# Test context: wild type EGFR; read-out: Inhibitory activity of EGFR on kinase (IC50, nM) WT
Answers are plain numbers, in nM.

Here are 5 compounds together with their reported answers.
compound_string=C=CC(=O)Nc1cccc(-n2c(=O)c(C(C)C)nc3cnc(Nc4ccc(N(C)CCN(C)C)cc4OC)nc32)c1 unit_symbol=nM value=174
compound_string=C=CC(=O)Nc1cccc(-n2c(=O)c(-c3ccccc3)nc3cnc(Nc4ccc(N5CCN(C)CC5)c(OC)c4)nc32)c1 unit_symbol=nM value=528
compound_string=C=CC(=O)N1CC[C@H](n2c(=O)c(C(C)C)nc3cnc(Nc4ccc(N5CCN(C)CC5)c(C)c4)nc32)C1 unit_symbol=nM value=700
compound_string=COc1cc(N2CCN(C)CC2)ccc1Nc1ncc2nc(-c3ccccc3)c(=O)n(-c3cccc(N)c3)c2n1 unit_symbol=nM value=16.6
compound_string=C=CC(=O)Nc1cc(Nc2ncc3nc(C(C)C)c(=O)n(C)c3n2)c(OC)cc1N(C)CCN(C)C unit_symbol=nM value=1730

// input: 2 compounds below; output: IC50 for each
1. C=CC(=O)N1CC[C@H](n2c(=O)c(-c3ccccc3)nc3cnc(Nc4ccc(N5CCN(C)CC5)c(OC)c4)nc32)C1
2. C=CC(=O)Nc1cccc(-n2c(=O)c(-c3ccccc3)nc3cnc(Nc4ccc(N5CCN(C)CC5)cc4OC)nc32)c1

Data returned:
[20.1, 10.5]
